System: Coll A
test-method-notes: Coll A repression
Assay type: cell-based
measurement-parameters: Table 5; read-out: Repression Coll A pot (EC50)
pEC50: −log10 of the molar value.
Classification field: enter MET for pEC50 values not below 8, NOT MET for values below it.

Consider the worked cases shown below.
compound	assigned-label
CC12Cc3cnn(-c4ccc(F)cc4)c3C=C1CCCC2C(O)c1ccc(O)cc1 (stereo not drawn)	NOT MET
C[C@]12CCC(=O)C=C1CC[C@@H]1[C@@H]2[C@@H](O)C[C@@]2(C)[C@H]1CC[C@]2(O)C(=O)CO	MET
CC12Cc3cnn(-c4ccc(F)cc4)c3C=C1CCCC2C(O)c1ccsc1 (stereo not drawn)	NOT MET

**Q:** Quick check, pEC50 >= 8? CC12Cc3cnn(-c4ccc(F)cc4)c3C=C1CCCC2C(O)c1cc2ccccc2c2ccccc12 (stereo not drawn)
**A:** NOT MET

###

Property: pEC50; scope: individual compounds
target-desc: GR (Homo sapiens, UniProt P04150)
Construct: expressed in transfected cells; host or cells: CV-1 cells, transient transfection (plasmid a gift of Keith Yamamoto, UCSF)
test-method-notes: GRE (TAT3-Luc) activation luciferase assay in CV-1 cells transfected with GR
Format: cell-based
measurement-parameters: Table 4; read-out: GR pot (EC50)
Please express pEC50 as -log10 of the molar concentration.

# annotated cases, reported pEC50 shown
compound	pEC50
CC12Cc3cnn(-c4ccc(F)cc4)c3C=C1CCCC2C(O)c1cccc2[nH]ccc12 (centres unmarked)	6.83
C[C@]12CCC(=O)C=C1CC[C@@H]1[C@@H]2[C@@H](O)C[C@]2(C=O)[C@@H](C(=O)CO)CC[C@@H]12 [Aldosterone, reference compound]	6.12
CC12Cc3cnn(-c4ccc(F)cc4)c3C=C1CCCC2C(O)c1csc2ccccc12 (centres unmarked)	6.50

Proceed to the following item.
**Q:** Under GR (Homo sapiens, UniProt P04150), report pEC50 for CC12Cc3cnn(-c4ccc(F)cc4)c3C=C1CCCC2C(O)c1ccc(O)cc1 (centres unmarked)
**A:** 6.48

###

target-desc: glucocorticoid receptor (GR) (Homo sapiens)
Construct: purchased Panvera Corp, Madison, Wis
test-method-notes: Glucocorticoid Receptor Competitor Assay Kit (Panvera) ligand binding
measurement-parameters: Table 1; relative binding affinity, dexamethasone = 100
parameter-measured: GR Binding RBA (dexamethasone = 100)
Hey, just send me the number, nothing else.

molecule	GR Binding RBA (dexamethasone = 100)
Cc1cc(O)cc(C)c1CC1CCCC2=Cc3c(cnn3-c3ccc(F)cc3)CC21C (stereo not shown)	22

**Q:** Fill in reported GR Binding RBA (dexamethasone = 100) for this entry: COCOC(c1c(C)cc(O)cc1C)C1CCCC2=Cc3c(cnn3-c3ccc(F)cc3)CC21C (stereo not shown)
**A:** 26

**Q:** Write down GR Binding RBA (dexamethasone = 100) measured for item Cc1cc(O)cc(C)c1C(O)C1CCCC2=Cc3c(cnn3-c3ccc(F)cc3)CC21C (stereo not shown)
**A:** 50

**Q:** // fetch GR Binding RBA (dexamethasone = 100) given entry Cc1cc(O)cc(C)c1C(=O)C1CCCC2=Cc3c(cnn3-c3ccc(F)cc3)CC21C (stereo not shown)
**A:** 16

###

target-desc: GR (Homo sapiens, UniProt P04150)
Construct: expressed in transfected cells; host or cells: CV-1 cells, transient transfection (plasmid a gift of Keith Yamamoto, UCSF)
Sequence (P04150 1-777): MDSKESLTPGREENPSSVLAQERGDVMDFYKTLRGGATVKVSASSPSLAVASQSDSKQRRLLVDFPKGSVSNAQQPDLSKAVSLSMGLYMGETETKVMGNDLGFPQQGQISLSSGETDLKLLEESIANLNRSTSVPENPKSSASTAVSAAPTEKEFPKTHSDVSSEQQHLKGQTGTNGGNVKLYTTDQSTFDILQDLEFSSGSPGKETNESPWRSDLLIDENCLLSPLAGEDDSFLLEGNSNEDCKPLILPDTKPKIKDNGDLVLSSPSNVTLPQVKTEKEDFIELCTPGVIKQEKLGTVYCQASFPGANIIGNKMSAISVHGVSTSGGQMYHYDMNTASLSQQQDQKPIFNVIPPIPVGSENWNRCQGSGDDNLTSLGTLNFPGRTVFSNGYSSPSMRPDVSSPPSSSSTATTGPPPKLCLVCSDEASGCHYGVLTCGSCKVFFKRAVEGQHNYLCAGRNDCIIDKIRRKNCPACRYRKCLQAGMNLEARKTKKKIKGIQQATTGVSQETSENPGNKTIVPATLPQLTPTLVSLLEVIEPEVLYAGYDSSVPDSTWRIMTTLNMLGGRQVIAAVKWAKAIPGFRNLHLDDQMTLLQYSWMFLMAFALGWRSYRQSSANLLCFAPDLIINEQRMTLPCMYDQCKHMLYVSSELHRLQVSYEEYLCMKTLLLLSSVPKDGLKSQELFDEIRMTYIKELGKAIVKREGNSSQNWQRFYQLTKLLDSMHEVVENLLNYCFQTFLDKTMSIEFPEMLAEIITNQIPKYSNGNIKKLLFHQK
test-method-notes: GRE (TAT3-Luc) activation luciferase assay in CV-1 cells transfected with GR
Type: cell-based
measurement-parameters: Table 2; read-out: GRE Activation GR pot (EC50)
pEC50: −log10 of the molar value.
parameter-measured: pEC50

**Q:** Output measured pEC50 for this item: CC12Cc3cnn(-c4ccc(F)cc4)c3C=C1CCC(=Cc1c3ccccc3cc3ccccc13)C2=O (stereo not shown)
**A:** < 5.30
